Data provenance is patent US9969775B2.

# Experimental target: hCGRP receptor (CALCRL:RAMP1) (Homo sapiens, UniProt O60894+Q16602)
# Construct: host or cells: GeneBLAzer CALCRL:RAMP1-CRE-bla Freestyle 293F
# Sequence (Q16602 23-461): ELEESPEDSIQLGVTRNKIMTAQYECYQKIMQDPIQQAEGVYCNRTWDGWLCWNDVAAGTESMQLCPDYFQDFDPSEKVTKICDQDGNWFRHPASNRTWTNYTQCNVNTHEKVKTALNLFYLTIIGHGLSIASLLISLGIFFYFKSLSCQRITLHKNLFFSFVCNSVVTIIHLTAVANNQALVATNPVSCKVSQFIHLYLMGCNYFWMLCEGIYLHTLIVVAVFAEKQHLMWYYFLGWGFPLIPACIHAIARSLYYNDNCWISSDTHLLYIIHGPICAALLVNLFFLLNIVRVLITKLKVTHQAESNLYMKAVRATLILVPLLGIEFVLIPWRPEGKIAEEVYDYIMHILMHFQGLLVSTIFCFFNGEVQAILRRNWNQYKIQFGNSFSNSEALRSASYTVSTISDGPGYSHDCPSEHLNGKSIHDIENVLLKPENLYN
# Sequence (O60894 27-148): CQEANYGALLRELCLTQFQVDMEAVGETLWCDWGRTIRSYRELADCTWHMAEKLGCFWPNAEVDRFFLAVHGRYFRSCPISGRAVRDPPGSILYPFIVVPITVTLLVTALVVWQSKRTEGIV
# Test summary: CGRP receptor antagonist activity measured by cAMP assay (HTRF)
# Format: cell-based
# Protocol conditions: % MPE: percent of the maximal possible effect; agonist human α-CGRP; read-out: hCGRP-R Efficacy Antag (%) Ave
Numbered stars: 1 amine (or outer) side, 2 acyl side, 3 side chain; on linkers, the order of the positions; unused ones are H or OH. Bridge positions count the residues as written; N and C are the ends. Square brackets hold non-standard residues; d marks the D form. Peptide text beside a SMILES is read from it. * marks the point of attachment. Phe(2-CONH2) = NC(=O)c1ccccc1C[C@H](N)C(=O)O; X5 = O=C([C@H](Cc1ccc(CO)cc1)N[*:1])[*:2]; Picolinoyl(5-F) = O=C(c1ccc(F)cn1)*; Orn(iPr) = CC(C)NCCC[C@H](N)C(=O)O; 3Pal = N[C@@H](Cc1cccnc1)C(=O)O; Picolinoyl = O=C(c1ccccn1)*; ΔPro = O=C(O)[C@@H]1C=CCN1; Orn = NCCC[C@H](N)C(=O)O
Assay endpoint: Emax (%)

INSERT INTO assay_data (molecule, experimental_target, result_number) VALUES
  ('CC(C)[C@@H]1NC(=O)[C@H](CC(=O)O)NC(=O)[C@H](CCCN)NC(=O)[C@@H](NC(=O)[C@H](Cc2ccc(O)cc2)NC(=O)[C@H](NC(=O)c2ccc(F)cn2)C(C)C)CSSC[C@@H](C(=O)N[C@@H](Cc2cccnc2)C(N)=O)NC(=O)[C@H](Cc2ccccc2)NC(=O)[C@@H]2CCCN2C(=O)CNC1=O [Compound 12] ({Picolinoyl(5-F)}-[dV]YC[Orn]DVGPFC[3Pal]-NH2; disulfide 3-10)', 'hCGRP receptor (CALCRL:RAMP1) (Homo sapiens, UniProt O60894+Q16602)', 100),
  ('CC(C)NCCC[C@@H]1NC(=O)[C@@H](NC(=O)[C@H](Cc2ccccc2C(N)=O)NC(=O)[C@H](NC(=O)c2ccc(F)cn2)C(C)C)CSSC[C@@H](C(=O)N[C@@H](Cc2cccnc2)C(N)=O)NC(=O)[C@H](Cc2ccccc2C(N)=O)NC(=O)[C@@H]2C=CCN2C(=O)CNC(=O)[C@H](C(C)C)NC(=O)[C@H](CC(=O)O)NC1=O [Compound 66] ({Picolinoyl(5-F)}-[dV][Phe(2-CONH2)]C[Orn(iPr)]DVG[ΔPro][Phe(2-CONH2)]C[3Pal]-NH2; disulfide 3-10)', 'hCGRP receptor (CALCRL:RAMP1) (Homo sapiens, UniProt O60894+Q16602)', 101),
  ('CC(C)[C@@H]1NC(=O)[C@H](CC(=O)O)NC(=O)[C@H](CCCNC(=N)N)NC(=O)[C@@H](NC(=O)[C@H](Cc2ccc(O)cc2)NC(=O)[C@H](NC(=O)c2ccccn2)C(C)C)CSSC[C@@H](C(=O)N[C@@H](Cc2cccnc2)C(N)=O)NC(=O)[C@H](Cc2cccnc2)NC(=O)[C@@H]2CCCN2C(=O)CNC1=O [Compound 3] (Picolinoyl-[dV]YCRDVGP[3Pal]C[3Pal]-NH2; disulfide 3-10)', 'hCGRP receptor (CALCRL:RAMP1) (Homo sapiens, UniProt O60894+Q16602)', 100),
  ('CC(C)[C@@H]1NC(=O)[C@H](CC(=O)O)NC(=O)[C@H](CCCN)NC(=O)[C@@H](NC(=O)[C@H](Cc2ccc(O)cc2)NC(=O)[C@H](NC(=O)c2ccccn2)C(C)C)CSSC[C@@H](C(=O)N[C@@H](Cc2cccnc2)C(N)=O)NC(=O)[C@H](Cc2ccc(CO)cc2)NC(=O)[C@@H]2CCCN2C(=O)CNC1=O [Compound 25] (Picolinoyl-[dV]YC[Orn]DVGP[X5]C[3Pal]-NH2; disulfide 3-10)', 'hCGRP receptor (CALCRL:RAMP1) (Homo sapiens, UniProt O60894+Q16602)', 100);
